Where these numbers come from: paper PMC8368218

Biological target: T1, G3BP1^NTF2 (UniProt Q13283 11-133)
T1 construct: also called NTF2 domain of G3BP1
T1 sequence (Q13283 11-133): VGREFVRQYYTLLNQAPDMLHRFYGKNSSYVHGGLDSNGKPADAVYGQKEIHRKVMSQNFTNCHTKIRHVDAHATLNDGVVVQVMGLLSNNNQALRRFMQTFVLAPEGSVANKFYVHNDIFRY
Assay: ITC
Conditions: both partners purified
measurement.name: Kd

q: Item NAPRITFGGPSDST (domain or fragment, also called fragment from the N-IDR of N protein) [SARS-CoV-2 N^11–24] has what recorded Kd?
a: ~10 µM
